Method: clinical
Protocol Conditions: human, in vivo, 100 mg, T1/2
Test Readout: half-life (h)
Answers are plain numbers, in h.

// lookup half-life for `Cn1cncc1[C@@](N)(c1ccc(Cl)cc1)c1ccc2c(c1)c(-c1cccc(Cl)c1)cc(=O)n2C` 6.57

---

Method: clinical
Protocol Conditions: human, in vivo, 100 mg, AUC
Test Readout: AUC (ng·h/mL)
Numbers only, in ng·h/mL.

// lookup AUC for Cn1cncc1[C@@](N)(c1ccc(Cl)cc1)c1ccc2c(c1)c(-c1cccc(Cl)c1)cc(=O)n2C [tipifarnib, Tipifarnib] 904
